assayed_target: Nicotinamide phosphoribosyltransferase (Homo sapiens, UniProt P43490)
Sequence (P43490 whole entry): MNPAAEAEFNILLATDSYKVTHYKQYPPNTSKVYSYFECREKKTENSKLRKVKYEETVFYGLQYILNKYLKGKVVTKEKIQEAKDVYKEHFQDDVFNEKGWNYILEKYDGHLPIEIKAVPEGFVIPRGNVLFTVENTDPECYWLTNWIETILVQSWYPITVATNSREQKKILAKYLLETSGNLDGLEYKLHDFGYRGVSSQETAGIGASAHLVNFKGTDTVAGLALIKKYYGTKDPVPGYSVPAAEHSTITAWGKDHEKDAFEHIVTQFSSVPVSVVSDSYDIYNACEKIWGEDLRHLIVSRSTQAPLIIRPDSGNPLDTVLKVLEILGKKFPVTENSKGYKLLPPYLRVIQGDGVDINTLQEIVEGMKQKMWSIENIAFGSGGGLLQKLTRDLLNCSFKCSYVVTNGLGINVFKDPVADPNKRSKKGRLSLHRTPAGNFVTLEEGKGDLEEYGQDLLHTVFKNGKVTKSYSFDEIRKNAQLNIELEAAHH
test_name: Inhibition of recombinant NAMPT (unknown origin) using NAM and PRPP as substrates incubated for 60 mins in presence of NMNAT1 measured at 5 mins interval for 30 mins by WST1 assay
pIC50: −log10 of the molar value.
parameter: pIC50

For orientation, consider the following solved cases.
O=C(/C=C/c1cccnc1)NCCCCc1ccc(S(=O)(=O)Nc2ccccc2)cc1: 7.75
Cc1cccc(NS(=O)(=O)c2cccc(CCCCCCNC(=O)/C=C/c3cccnc3)c2)c1: 7.91
Cc1ccc(C)c(NS(=O)(=O)c2cccc(CCCCCCNC(=O)/C=C/c3cccnc3)c2)c1: 7.93

I. Cc1ccccc1NS(=O)(=O)c1cccc(CCCCCCNC(=O)/C=C/c2cccnc2)c1
II. O=C(/C=C/c1cccnc1)NCCCCCCc1cccc(S(=O)(=O)Nc2ccc(Cl)cc2)c1
Request: Min pIC50? I | II Reply with the label of the item you choose.
Result: II
(II: 7.97, I: 8.29)
